test system: SK-MEL-28; test: NCI tumour cell line growth inhibition, 48 h
Calls of active or inactive are those of the source. Rule as the data show it: active = GI50 up to about 1.1 µM and inactive = higher.
Possible outcomes: active, inactive

[[record]]
molecule = "CN(C)CCCN1c2ccccc2Sc2cnccc21"
classname = "inactive"

[[record]]
molecule = "Cn1c2c(c3ccccc31)CCN1C(=O)CN(C(=O)C3CCCCC3)CC21 (stereo unspecified)"
classname = "inactive"

[[record]]
molecule = "CC1=C(C(=O)NCc2ccccc2)C(c2ccc(C3C(C(=O)NCc4ccccc4)=C(C)NC(C)=C3C(=O)NCc3ccccc3)cc2)C(C(=O)NCc2ccccc2)=C(C)N1"
classname = "inactive"

[[record]]
molecule = "O=C(NCc1cccnc1)NCc1cccnc1"
classname = "inactive"

[[record]]
molecule = "COc1ccc(/C(C)=N/NC(=S)N(C)C)c(O)c1"
classname = "inactive"

[[record]]
molecule = "C=C[C@@]1(O)CCCC2=C(C(=O)OCC)CC[C@]21C"
classname = "inactive"

[[record]]
molecule = "O=c1oc2ccccc2cc1-c1ccc([N+](=O)[O-])cc1"
classname = "inactive"

[[record]]
molecule = "NC(Cc1ncccn1)C(=O)O (stereo unspecified)"
classname = "inactive"

[[record]]
molecule = "CC(C)(C)C1CCC2c3c([nH]c4ncccc34)C3C(=O)N(c4ccccc4)C(=O)C3C2C1 (stereo unspecified)"
classname = "inactive"

[[record]]
molecule = "Cc1cc(C)nc(NS(=O)(=O)c2ccc(NC(=O)c3cccc4c(=O)c5ccccc5[nH]c34)cc2)n1"
classname = "inactive"

[[record]]
molecule = "CC(C)c1cccc2sc(NC(=O)C(=O)CC(=O)c3ccc(F)cc3)nc12"
classname = "inactive"

[[record]]
molecule = "O=S1(=O)C(c2ccccc2)=C(O)c2ccccc21"
classname = "inactive"

[[record]]
molecule = "COc1ccc(Cn2nc(OCc3ccccn3)c3cc([N+](=O)[O-])ccc32)cc1"
classname = "inactive"

[[record]]
molecule = "CNCCN[C@@H]1c2cc3c(cc2[C@@H](c2cc(OC)c(O)c(OC)c2)[C@H]2C(=O)OC[C@@H]21)OCO3"
classname = "active"

[[record]]
molecule = "Cn1c(Nc2ccccc2)c(/C=N\\c2ccccc2)c(=O)n(C)c1=O"
classname = "inactive"

[[record]]
molecule = "Cc1ccc(/C=C2\\N=C(N3CCOCC3)NC2=O)cc1"
classname = "inactive"

[[record]]
molecule = "Cc1ccc2c(ccc3[nH]cc(CNc4ccc(NS(C)(=O)=O)cc4)c32)n1"
classname = "inactive"

[[record]]
molecule = "CCOP(=O)(OCC)C(Cc1ccc(Cl)cc1)NS(=O)(=O)c1ccc(C)cc1 (stereo unspecified)"
classname = "inactive"

[[record]]
molecule = "CCN(CC)C(=S)SC(=S)N(CC)CC"
classname = "inactive"

[[record]]
molecule = "S=C(/C=C1\\SC(=N\\c2ccccc2)/C(=N/c2ccccc2)N1c1ccccc1)Nc1ccccc1"
classname = "inactive"

[[record]]
molecule = "O=C(NCCCN1CCN(CCCNC(=O)Nc2cc(Cl)ccc2Cl)CC1)Nc1cc(Cl)ccc1Cl"
classname = "inactive"

